The values you see were collected from patent US20260014285A1.

Test: in vivo
Design: species or system mice
Details: naked (nude), mouse, iv, 100 uCi, total radioactivity, % ID/g Bladder
Non-standard residues stand in square brackets, D forms with d. Residues, ends and D or L forms follow the SMILES beside them. *: point of attachment. DOTA = O=C(O)CN1CCN(CC(=O)O)CCN(CC(=O)*)CCN(CC(=O)O)CC1; Aib = CC(C)(N)C(=O)O; AEA = NCCOCC(=O)O
Parameter: tissue uptake at 1 h. Scope: all listed entries.

{"columns": ["molecule", "tissue uptake at 1 h, %ID/g"],
 "data": [
  ["CC[C@H](C)[C@H](NC(=O)[C@@H](NC(=O)[C@H](CC(=O)O)NC(=O)[C@H](CC(N)=O)NC(=O)COCCNC(=O)CN1CCN(CC(=O)O)CCN(CC(=O)O)CCN(CC(=O)O)CC1)C(C)C)C(=O)N[C@@H](CC(N)=O)C(=O)O [^68Ga-TM13, metal not drawn] ({DOTA-AEA}-NDVIN-OH)", 7.3],
  ["CC[C@H](C)[C@H](NC(=O)C(C)(C)NC(=O)[C@H](CC(=O)O)NC(=O)[C@H](CC(N)=O)NC(=O)CN1CCN(CC(=O)O)CCN(CC(=O)O)CCN(CC(=O)O)CC1)C(=O)N[C@@H](CC(N)=O)C(=O)O [^68Ga-TM11, metal not drawn] ({DOTA}-ND[Aib]IN-OH)", 18.9]
]}

* * *

Assay: in vivo
Set-up: species or system mice
Conditions: naked (nude), mouse, iv, 100 uCi, total radioactivity, % ID/g Kidney
Non-standard residues stand in square brackets, D forms with d. Residues, ends and D or L forms follow the SMILES beside them. *: point of attachment. DOTA = O=C(O)CN1CCN(CC(=O)O)CCN(CC(=O)*)CCN(CC(=O)O)CC1; Aib = CC(C)(N)C(=O)O; AEA = NCCOCC(=O)O
Parameter: tissue uptake at 1 h. Scope: all listed entries.

{"columns": ["compound", "tissue uptake at 1 h (%ID/g)"],
 "data": [
  ["CC[C@H](C)[C@H](NC(=O)C(C)(C)NC(=O)[C@H](CC(=O)O)NC(=O)[C@H](CC(N)=O)NC(=O)CN1CCN(CC(=O)O)CCN(CC(=O)O)CCN(CC(=O)O)CC1)C(=O)N[C@@H](CC(N)=O)C(=O)O [^68Ga-TM11, metal not drawn] ({DOTA}-ND[Aib]IN-OH)", 1.2],
  ["CC[C@H](C)[C@H](NC(=O)[C@@H](NC(=O)[C@H](CC(=O)O)NC(=O)[C@H](CC(N)=O)NC(=O)COCCNC(=O)CN1CCN(CC(=O)O)CCN(CC(=O)O)CCN(CC(=O)O)CC1)C(C)C)C(=O)N[C@@H](CC(N)=O)C(=O)O [^68Ga-TM13, metal not drawn] ({DOTA-AEA}-NDVIN-OH)", 1.6]
]}
